test: qHTS for differential inhibitors of proliferation of Plasmodium falciparum line D10 (AID 1877); conditions: series mostly up to 28.7 µM;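 also: parasites grown with compound for 72 h before DNA staining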; also: potency is read from the fitted curve at half-maximal effect
Results filed as inconclusive are left out. Active and inactive are the calls of the source. Calls follow the shape of the dose curve; as a rule, active = well fitted curve in the direction sought with a large enough effect; inconclusive = small, poorly fitted or top-dose-only effect, or another doubt; inactive = no such curve, though single readings can be large or run the other way.
PROPERTY_MEASURED: Potency

MOLECULE: CC(CCc1ccccc1)NCC(O)c1ccc(O)c(C(N)=O)c1 (stereo not drawn)
RESULT: 12.6 µM (active)

MOLECULE: C[N+]1(CCCCC[N+]2(C)CCCC2)CCCC1
RESULT: inactive

MOLECULE: N[C@H](CO)C(=O)O
RESULT: inactive

MOLECULE: Nc1cc(Cl)c(NC2=NCCN2)c(Cl)c1
RESULT: inactive

MOLECULE: N[C@@H](Cc1cnc[nH]1)C(=O)O
RESULT: inactive

MOLECULE: CN1C2CCC1CC(OC(=O)c1c[nH]c3ccccc13)C2 (stereo not drawn)
RESULT: 11.2 µM (active)

MOLECULE: CCCn1c(=O)[nH]c(=O)c2[nH]cnc21
RESULT: inactive

MOLECULE: C[C@@H]1C(=O)NC2=Nc3cccc(Cl)c3CN21
RESULT: inactive

MOLECULE: COC(=O)[C@H]1[C@H]2C[C@H]3c4[nH]c5ccccc5c4CCN3C[C@H]2CC[C@@H]1O
RESULT: inactive

MOLECULE: CC1(C)CCC(NC(=O)[C@@H](N)CCC(=O)O)CC1
RESULT: inactive

MOLECULE: COc1cc(-c2ccc(=O)[nH]n2)ccc1OC(F)F
RESULT: inactive

MOLECULE: O=C(O)c1cc2cc(Cc3cccnc3)ccc2o1
RESULT: inactive

MOLECULE: CN=C(NC#N)Nc1ccc(C2=NNC(=O)CC2C)cc1 (stereo not drawn)
RESULT: inactive
